Attribution: PubChem BioAssay (NCI)

System: K-562 leukemia
experiment-summary: NCI-60 one-dose screen, 48 h (100 = growth as untreated, 0 = no growth, -100 = all killed)
run-parameters: 10 µM
The panel holds about 83,000 compounds, 20% with a hit somewhere; the sample as a whole holds those more often. Where a SMILES comes first, the peptide text is derived from it. Bridges are numbered along the chain shown (N, C = ends). [ ]: non-standard residue; d: D form. The star is where a group is joined. ξ: configuration not given here. ξNMePhe(4-NMe2) = CNC(Cc1ccc(N(C)C)cc1)C(=O)O; Picolinoyl(3-OH) = O=C(c1ncccc1O)*; ξPip(4-oxo) = O=C1CCNC(C(=O)O)C1; Phg = N[CH](C(=O)O)c1ccccc1; Abu = CC[CH](N)C(=O)O
Here the recorded growth is given for each entry.
property-measured: growth (%)

| molecule | reported-value |
| --- | --- |
| CCC1NC(=O)C(NC(=O)c2ncccc2O)C(C)OC(=O)C(c2ccccc2)NC(=O)C2CC(=O)CCN2C(=O)C(Cc2ccc(N(C)C)cc2)N(C)C(=O)C2CCCN2C1=O (stereo not drawn) (tested in a mixture with another compound) ({Picolinoyl(3-OH)}-T[Abu]P[ξNMePhe(4-NMe2)][ξPip(4-oxo)][Phg]; ester 1-C; configuration not given here) | 38.3 |
| NC(=O)N/N=C\c1ccco1 | 100 |
| CC(C)=C(NC(=O)c1ccccc1)C(=O)O | 102 |
| COc1ccc2c(c1)CCc1c-2n[nH]c1-c1[nH]nc2c1CCc1cc(OC)ccc1-2 | 20.8 |
| OCC1OC(OC2C(O)C(CO)OC2(CO)OC2OC(CO)C(O)C(O)C2O)C(O)C(O)C1O (stereo not drawn) | 139 |
| Cc1ccc(Cl)cc1NC(=O)N(C)CCO | 98.5 |
| CCCCC(=O)c1ccc(OC)cc1 | 105 |
| O=C1N(C[P+](c2ccccc2)(c2ccccc2)c2ccccc2)CCCN1C[P+](c1ccccc1)(c1ccccc1)c1ccccc1 | 93.9 |
| O=c1cc(-c2ccccc2)[nH]c(=S)[nH]1 | 96.2 |
| CCN(CC)c1ccc2nc3ccc(=[N+](CC)CC)cc-3oc2c1 | 21 |
| COC(=O)C(C)Oc1ccc(OC#N)cc1 (stereo not drawn) | 94.1 |
| CC(CN1CCCCC1)NC(=O)c1scnc1-c1ccccc1 (stereo not drawn) | 113 |
| CCCCCC(C)(CC(=O)O)CC(=O)O | 106 |
| CC(C)OC(C(=O)O)c1ccccc1 (stereo not drawn) | 124 |
| COC(=O)C(O)c1ccccc1 (stereo not drawn) | 101 |
| COC(=O)/C=C/C(=O)NC(N)=O | 105 |
| O=C1OC[C@H]2[C@H](c3ccc(O)c(O)c3)c3cc(O)c(O)cc3C[C@H]12 | 180 |
| NCCCN | 103 |
| COCCOC(=O)c1ccc(C(C)C)cc1 | 106 |
| CCOc1ccc(/C=N/N=C(N)N)cc1OCC | 98.7 |
| CC1(C(=O)O)NC(C(=O)O)Cc2c1[nH]c1ccccc21 (stereo not drawn) | 96.9 |
| Cc1cccc([N+](=O)[O-])c1Cl | 119 |
| COC(=O)c1cccc(Br)c1 | 121 |

* * *

Tested on: LOX IMVI melanoma
experiment-summary: NCI-60 one-dose screen, 48 h (100 = growth as untreated, 0 = no growth, -100 = all killed)
run-parameters: 10 µM
Protocol: Growth inhibition of the LOX IMVI human tumor cell line is measured as a screen for anti-cancer activity. Cells are grown in 96 well plates and exposed to the test compound for 48 hours. Compounds are tested at a single concentration, which is 10^-5 M for most compounds. The reported endpoint is percent growth (GI% or GIPRCNT), where numbers from 0 - 100% represent growth inhibition, and numbers from -100% - 0 represent cell death. For example, a value of 40 represents 60% growth inhibition. […]
This is part of a sample that, as a whole, favours compounds with a hit. Of some 83,000 tested, about 20% had one in any assay. Activity calls are given as the source filed them. Rule for the calls: active = growth percent below 10; inactive = the rest.
// growth lookup, one value per entry

| compound | growth |
| --- | --- |
| S=c1sc2ccccc2n1CN1CCCCC1 | 84.5% (inactive) |
| OCc1ccc(-c2ccc(-c3ccc(CO)s3)o2)s1 | 73.2% (inactive) |
| O=[N+]([O-])c1ccc(/C=C/C=C/c2ccccc2)c(Cl)c1 | 98% (inactive) |
| FC(F)(F)c1ccc2c(c1)N(CCCN1CCN(C3CC3)CC1)c1ccccc1S2 | 37.6% (inactive) |
| CCC/C=C(/C(C)=O)C(=O)OCC | 102% (inactive) |
| CCn1c(=O)n(C)c2c(=O)n(C)c(=O)n(C)c21 | 96.4% (inactive) |
| CC(C)(N)COS(=O)(=O)O | 113% (inactive) |
| Cc1cc(=O)cc(C)n1-c1ccccc1 | 98.9% (inactive) |
| CC1(C)OC(=O)C(c2ccsc2)C(=O)O1 | 88.8% (inactive) |
| CCN(CC)CCNc1ccc(CO)c2sc3ccccc3c(=O)c12 | 28% (inactive) |
| Brc1cnc2ccccc2c1 | 101% (inactive) |
| CCCC(=O)Nc1ccc2c(c1)CN1C(=O)c3ccccc3C1=N2 | 105% (inactive) |
| CCN1C(=O)/C(=C/C=C/N(C)c2ccccc2)SC1=S | 91.5% (inactive) |
| CNc1nc(NC)c2cn[nH]c2n1 | 98.3% (inactive) |
| CN(C)CCN(C)CC(C)(C)C(=O)/C=C/c1ccc(Cl)cc1 | -96.4% (active) |
| C#C[C@H]1CCCCCC1O (some centres undefined) | 97% (inactive) |
| CCCCCC(C)(CC(=O)O)CC(=O)O | 112% (inactive) |
| COC(=O)C(C)Oc1ccc(OC#N)cc1 (centres undefined) | 93.2% (inactive) |
| CC(C)(C)c1cc(O)c(C(C)(C)C)cc1O | 98.1% (inactive) |
| C=CC[N+](C)(C)C | 92.2% (inactive) |
| CC(=O)/C(Cc1ccccc1)=N/O | 94.2% (inactive) |
| CC(C)C1CCCCC1O (centres undefined) | 96.3% (inactive) |
| CC(C)OC(C(=O)O)c1ccccc1 (centres undefined) | 88.5% (inactive) |
| O/N=C/c1ccc(O)cc1O | 105% (inactive) |
| COC(=O)Nc1nc2ccc(C(=O)c3ccc(F)cc3)cc2[nH]1 | 28.4% (inactive) |
| O=C(O)c1ccccc1NCc1ccco1 | 93.5% (inactive) |
| CCOC(=O)C(=O)C=P(c1ccccc1)(c1ccccc1)c1ccccc1 | 92.8% (inactive) |
| CCCC1(c2ccccc2)NC(=O)NC1=O (centres undefined) | 105% (inactive) |
| CC(=O)Nc1c(C)cc(C)cc1C | 96.9% (inactive) |
| COc1ncnc2c1cnn2C | 98% (inactive) |
| Cc1ccc(C)n1-c1ccsc1C(=O)NNC(=O)C(Cl)Cl | 81.7% (inactive) |
| COc1cc(/C=N\Nc2ccccc2)ccc1OC(=O)c1ccccc1 | 3.86% (active) |
| CC(C(=O)O)(C1CCCCC1)C1(O)CCCCC1 (centres undefined) | 95.3% (inactive) |
| O=C(CN1CCNCC1)N1CCOCC1 | 98.4% (inactive) |
| CCOc1ccccc1/C=N/Nc1nc2ccccc2o1 | 94.1% (inactive) |
| CCNc1nc2c(cnn2C)c(=O)[nH]1 | 95% (inactive) |
| CCCNC(=O)c1ccc(S(N)(=O)=O)cc1 | 98.9% (inactive) |
| NCCC(=O)c1ccc(Cl)cc1 | 106% (inactive) |
| CCC(C)(C)C1CCC(O)CC1 (centres undefined) | 91.1% (inactive) |
| C=C[Si](OC(C)=O)(OC(C)=O)OC(C)=O | 98.4% (inactive) |
| CCCCC1(CC)COC(CCC)OC1 (centres undefined) | 97.3% (inactive) |
| O=C(Nc1ccccc1C(=O)NCC1CC1)c1cccs1 | 102% (inactive) |
| CO[C@H]1C[C@@H]2CC[C@@H](C)[C@@](O)(O2)C(=O)C(=O)N2CCCC[C@H]2C(=O)O[C@H]([C@H](C)C[C@@H]2CC[C@@H](O)[C@H](OC)C2)CC(=O)[C@H](C)C=C(C)[C@@H](O)[C@@H](OC)C(=O)[C@H](C)C[C@H](C)/C=C/C=C/C=C1C | 51.9% (inactive) |
| CCOC(=O)CNN | 90.6% (inactive) |
| CCC/C=C(\C)C(C)(C#N)C(=O)OCC (centres undefined) | 99.9% (inactive) |
| C=CCOC(=O)C(=O)OCC=C | 111% (inactive) |
| CC1(O)OC(COc2ccc(Cl)cc2)COC1O (centres undefined) | 98.9% (inactive) |
| O=[N+]([O-])c1ccc(N=Nc2ccc(O)c3ccccc23)cc1 | 18.4% (inactive) |
| CC1=C(/C=C/C(C)=C/C=C/C(C)=C/CO)C(C)(C)CCC1 | 94.7% (inactive) |
| C=CCNC(=O)c1ccc(OC)cc1 | 111% (inactive) |
| CC(=O)OCC1=CC2OC(=O)C3=COC(OC4OC(CO)C(O)C(O)C4O)C1C32 (centres undefined) | 111% (inactive) |
| C/C(=N\O)C1(O)CCCCC1 | 98.8% (inactive) |
| CCN(CC)C(=O)/C=C(/C)c1ccccc1 | 98.7% (inactive) |
| c1ccc2c(c1)Sc1ccccc1S2 | 98.2% (inactive) |
